- Test system: RXF 631
- measurementNotes: NCI tumour cell line growth inhibition, 48 h
Activity calls are given as the source filed them. Cut-off read from the data, not from the text of the source: active = GI50 up to about 1.1 µM and inactive = higher.
Outcomes: active, inactive

compound=COc1cc([N+](=O)[O-])ccc1NC(=O)c1cccc([N+](=O)[O-])c1O cat=inactive
compound=COc1ccc(/C=C\c2cc(OC)c(OC)c(OC)c2)cc1OC cat=active
compound=O=C(NO)c1coc2ccccc2c1=O cat=inactive
compound=COc1cc(-c2nn3c(=O)n(-c4ccc(Cl)cc4)c(=O)nc3s2)cc(OC)c1OC cat=inactive
compound=Cc1cc2c(=O)cc(-c3ccncc3)oc2c(C(=O)O)c1C cat=inactive
compound="Cc1ccc(S(=O)(=O)OC(C=O)C(O)C(O)COC(c2ccccc2)(c2ccccc2)c2ccccc2)cc1 (configuration not stated)" cat=active
compound=CC(=O)/C(=N\O)C(=O)NCc1ccccc1 cat=inactive

* * *

- Tested on: UACC-62
- measurementNotes: NCI tumour cell line growth inhibition, 48 h
Activity calls are given as the source filed them. No stated cut-off is given here; in the data, active = GI50 up to about 1.1 µM and inactive = higher.
assayEndpoint: GI50

molecule="COc1ccc(C2Oc3ccc(Cl)cc3C=C2[N+](=O)[O-])cc1OC (stereo unspecified)" assayendpoint=GI50 result="1.5 µM (inactive)"
molecule=Cn1c(=O)c2c3ccccc3c(C(=O)c3ccccc3)n2c2ccccc21 assayendpoint=GI50 result="4.02 µM (inactive)"
molecule="COC(=O)C1Cc2c([nH]c3ccccc23)[C@H](CC(C)C)N1 (stereo partly specified)" assayendpoint=GI50 result="> 100 µM (inactive)"
molecule=COc1ccc(-c2nnc(-c3ccncc3)o2)cc1 assayendpoint=GI50 result="> 100 µM (inactive)"
molecule="COc1c(C)c(C/C=C(\\C)CCCC(C)CCCC(C)CCCC(C)C)c(OC)c2ccccc12 (stereo unspecified)" assayendpoint=GI50 result="> 100 µM (inactive)"
molecule=COc1cc2c(cc1OC)C(=O)N(c1ccc(OCCN3CCCC3)cc1)C2=O assayendpoint=GI50 result="> 100 µM (inactive)"
molecule="CC1(OCc2ccccc2)C(=O)N2C1N(C(=O)OCc1ccccc1)CC2(C)C (stereo unspecified)" assayendpoint=GI50 result="38.5 µM (inactive)"
molecule="O=C(Nc1cccc(O)c1)C(=O)C(C(=O)c1ccc(Cl)c(Cl)c1)C1OC(=O)c2ccccc21 (stereo unspecified)" assayendpoint=GI50 result="17.5 µM (inactive)"
molecule=O=C(NO)NCCCl assayendpoint=GI50 result="> 100 µM (inactive)"
molecule="O=C1c2ccccc2OCC12OC21C=CC(Cl)=CC1 (stereo unspecified)" assayendpoint=GI50 result="27.3 µM (inactive)"
molecule=COc1cc(-c2nn3c(=O)n(-c4ccc(Cl)cc4)c(=O)nc3s2)cc(OC)c1OC assayendpoint=GI50 result="> 50 µM (inactive)"

* * *

- Tested on: SK-MEL-2
- measurementNotes: NCI tumour cell line growth inhibition, 48 h
Calls of active or inactive are those of the source. Cut-off read from the data, not from the text of the source: active = GI50 up to about 1.1 µM and inactive = higher.
Outcomes: T (active), F (inactive)

compound="NNC(=O)N/N=C1\\CNC(=O)C(=O)C1c1nc2ccccc2s1 (stereo unspecified)" tgt=SK-MEL-2 cat=F
compound=O=C(O)Cn1nnc2c(=O)[nH][nH]c(=O)c21 tgt=SK-MEL-2 cat=F
compound=c1ccc(CN2CCc3[nH]c4ccccc4c3C2)cc1 tgt=SK-MEL-2 cat=F
compound="O=C(O)CC(C(=O)O)c1ccccc1[N+](=O)[O-] (stereo unspecified)" tgt=SK-MEL-2 cat=F
compound=O=C(CSCC(=O)N/N=C/c1cccc(OCc2ccccc2)c1)N/N=C/c1cccc(OCc2ccccc2)c1 tgt=SK-MEL-2 cat=F
compound=Cc1cc2c(C)nn(Cc3ccc(Cl)cc3)c2c(C#N)c1C tgt=SK-MEL-2 cat=F
compound=O=C(O)c1cc2ccccc2c(/N=N/c2ccc(S(=O)(=O)Nc3ccccn3)cc2)c1O tgt=SK-MEL-2 cat=F
compound="COc1ccc(C(C)NNC(=O)c2ccncc2)cc1OC (stereo unspecified)" tgt=SK-MEL-2 cat=F
compound=COc1ccc2c(c1)c1c(n2CCN(C)C)-c2cccc(OC)c2CC1 tgt=SK-MEL-2 cat=F
compound=Cc1c2c(c(C)n1-c1ccccc1)C(=O)N(CCN1CCN(c3cccc(C(F)(F)F)c3)CC1)C2=O tgt=SK-MEL-2 cat=T
compound=CCCCCNC(=O)c1cc2cc(CCl)ccc2oc1=O tgt=SK-MEL-2 cat=F
